Overview of recorded pKi for various binders
biological target: SNAP-tagged murine µOR on HEK293 cells (murine, UniProt P42866 1-398); experiment: AlphaScreen or HTRF
Sequence (P42866 whole entry): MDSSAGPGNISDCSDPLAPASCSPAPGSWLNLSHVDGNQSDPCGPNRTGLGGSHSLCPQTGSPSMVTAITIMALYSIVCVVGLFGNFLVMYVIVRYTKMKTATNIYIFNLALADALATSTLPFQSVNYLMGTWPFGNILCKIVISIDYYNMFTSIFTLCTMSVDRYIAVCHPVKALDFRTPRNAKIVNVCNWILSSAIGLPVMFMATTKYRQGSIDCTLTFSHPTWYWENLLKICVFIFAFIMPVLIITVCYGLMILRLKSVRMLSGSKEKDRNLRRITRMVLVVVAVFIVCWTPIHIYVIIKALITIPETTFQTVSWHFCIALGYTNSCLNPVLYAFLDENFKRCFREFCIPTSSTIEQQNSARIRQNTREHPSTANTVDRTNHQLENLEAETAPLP
pKi: −log10 of the molar value.
observationType: pKi

[[record]]
binder = "KYYSGSYFYKSEYD [linear peptide 6 (NbE CDR3 residues 100-113, 14 residues)]"
measurednumber = 5.51

[[record]]
binder = "Ac-YYSGSYFYKSEY-NH2 [linear peptide 5 (NbE CDR3, 12 residues)]"
measurednumber = 5.89


Hello, the source for this data is paper PMC11464722, in case you need it.
